- System: TNF-α
- experiment: TNF-α inhibition in LPS-stimulated human peripheral blood mononuclear cells (primary screening)
- Type: cell-based
- run.conditions: Homo sapiens, PBMC; LPS (1 μg/mL)-stimulated hPBMCs, 5 hours, ELISA
pIC50: −log10 of the molar value. Structures can show the parent of a compound that is named as a salt.
measured.quantity: pIC50

Enter measured pIC50, system TNF-α, for the compound shown: CC1=C2[C@@H]3OC(=O)C(CN(C)CC(O)c4ccc(O)cc4)C3(O)CC[C@@]2(C)CCC1 (stereo partly shown)
6.70

[a] CC1=C2[C@@H]3OC(=O)C(CN4CCCCC4)C3(O)CC[C@@]2(C)CCC1 (stereo partly shown)
[b] COC(=O)CNCC1C(=O)O[C@H]2C3=C(C)CCC[C@]3(C)CCC12O (stereo partly shown)
[c] CC1=C2[C@H]3OC(=O)C(CNCC4C(=O)O[C@H]5C6=C(C)CCC[C@]6(C)CCC45O)C3(O)CC[C@]2(C)CCC1 (stereo partly shown) [Compound of example 55, hydrochloride]
Put the items in order so that reported pIC50 rises from first to last. Show the ranking through the labels, in the order asked for.
b, c, a
(b: 5.70, c: 5.92, a: 6.15)

###

- Tested on: IL-8
- experiment: IL-8 released by LPS-stimulated hPBMCs
- Assay type: cell-based, Human
- run.conditions: LPS (1 μg/mL)-stimulated hPBMCs, 5 hours, ELISA
measured.quantity: IC50 (µM)
The figure you give is taken to be in µM; do not add the unit.

Return reported IC50 for target or system IL-8, item CC12CCCC3(C)OC13C1OC(=O)C(CN3CCCCC3)C1(O)CC2 (stereo not shown) .
9.2

###

- Tested on: TNF-α
- experiment: TNF-α inhibition in LPS-stimulated human peripheral blood mononuclear cells (primary screening)
- Type: cell-based
- run.conditions: Homo sapiens, PBMC; LPS (1 μg/mL)-stimulated hPBMCs, 5 hours, ELISA
pIC50: −log10 of the molar value.
measured.quantity: pIC50

Answer with pIC50 of CC1=C2[C@@H]3OC(=O)C(CN4CCN(Cc5ccccc5)CC4)C3(O)CC[C@@]2(C)CCC1 (stereo partly shown) measured for TNF-α.
6.52

[a] CC1=C2[C@@H]3OC(=O)C(CN4CCN(Cc5ccccc5F)CC4)C3(O)CC[C@@]2(C)CCC1 (stereo partly shown)
[b] CC1=C2[C@@H]3OC(=O)C(CN4CCN(CC5C(=O)O[C@H]6C7=C(C)CCC[C@]7(C)CCC56O)CC4)C3(O)CC[C@]2(C)CCC1 (stereo partly shown)
Between item a and item b , which reported pIC50 is smaller? # respond with the chosen item's label
b
(b: 6.22, a: 6.52)

###

- System: IL-6
- experiment: IL-6 released by LPS-stimulated hPBMCs
- Assay type: cell-based, Human
- run.conditions: Homo sapiens; LPS (1 μg/mL)-stimulated hPBMCs, 5 hours, ELISA
Counter-ions that a name gives are not always drawn.
measured.quantity: IC50 (µM)

Specify IC50 for CC1=C2[C@H]3OC(=O)C(CNCC4C(=O)O[C@H]5C6=C(C)CCC[C@]6(C)CCC45O)C3(O)CC[C@]2(C)CCC1 (stereo partly drawn) [Compound of example 55, hydrochloride] and stop.
3.1

[1] CC1=C2[C@@H]3OC(=O)C(CN4CCCCC4)C3(O)CC[C@@]2(C)CCC1 (stereo partly drawn)
[2] CC1=C2[C@@H]3OC(=O)C(CN4CCN(CC5C(=O)O[C@H]6C7=C(C)CCC[C@]7(C)CCC56O)CC4)C3(O)CC[C@]2(C)CCC1 (stereo partly drawn)
Of 1 versus 2 , which is the one with smaller reported IC50? Your answer should be the label of the entry you select.
2

###

- Tested on: TNF-α
- experiment: TNF-α inhibition in LPS-stimulated human peripheral blood mononuclear cells (primary screening)
- Type: cell-based
- run.conditions: Homo sapiens, PBMC; LPS (1 μg/mL)-stimulated hPBMCs, 5 hours, ELISA
Where a name gives a salt, the structure may show the parent alone.
measured.quantity: IC50 (nM)

Answer with reported IC50 of CC1=C2[C@@H]3OC(=O)C(CN4CCOCC4)C3(O)CC[C@@]2(C)CCC1 (stereo partly shown)
700

For the compound CCOC(=O)N1CCN(CC2C(=O)O[C@H]3C4=C(C)CCC[C@]4(C)CCC23O)CC1 (stereo partly shown) [Compound of example 48, hydrochloride] , give its measured IC50 value.
700

Kindly indicate its recorded IC50. Item: CC1=C2[C@@H]3OC(=O)C(CN4CCN(Cc5c(F)cccc5C(F)(F)F)CC4)C3(O)CC[C@@]2(C)CCC1 (stereo partly shown)
1100

[A] COc1cc(CN2CCN(CC3C(=O)O[C@H]4C5=C(C)CCC[C@]5(C)CCC34O)CC2)c(CO)c(OC)c1 (stereo partly shown)
[B] CC(=O)OCC1(O)C(=O)O[C@H]2C3=C(C)CCC[C@]3(C)CCC21O (stereo partly shown)
Consider entries A and B . Which has the numerically lower IC50? Returns: label corresponding to the selected item.
B
(B: 500 nM, A: 800 nM)

[I] CC1=C2[C@@H]3OC(=O)C(CNC4C(O)C(O)C(CO)O[C@H]4O)C3(O)CC[C@@]2(C)CCC1 (stereo partly shown)
[II] CC1=C2[C@@H]3OC(=O)C(CN4CCN(c5ccccn5)CC4)C3(O)CC[C@@]2(C)CCC1 (stereo partly shown)
Return label of the item with the larger IC50. Candidates: I , II . Answer = label.
II

###

- System: IL-6
- experiment: IL-6 released by LPS-stimulated hPBMCs
- Type: cell-based, Human
- run.conditions: LPS (1 μg/mL)-stimulated hPBMCs, 5 hours, ELISA
measured.quantity: pIC50
Entry type: numeric. Quantity: pIC50, the -log10 of concentration in molar units.

Retrieve pIC50 measured for CC12CCCC3(C)OC13C1OC(=O)C(CN3CCCCC3)C1(O)CC2 (stereo not shown) and print it.
6.05
